Tested on: UACC-257 melanoma
procedure-summary: NCI-60 one-dose screen, 48 h (100 = growth as untreated, 0 = no growth, -100 = all killed)
condition-set: 10 µM unless noted
About 83,000 compounds went through this panel and 20% of them were active in at least one assay; those are over-represented in the sample as a whole.
Measured growth, listed per entry.
Numbers only here, please. The scale is %.

compound | readout-kind | reading-unit | readout-number
O=C(N/N=C/c1ccc(OC(F)F)c(OC2CCCC2)c1)c1cnn2c1NC(c1ccccc1)C2 (stereo unspecified) | growth | % | 88.2

Now examine the next entry.
Item O=C(Nc1ccccc1O)c1ccc(NS(=O)(=O)c2cccc3cccnc23)cc1 ; assay system UACC-257 melanoma; growth reported as 26.8
